# Test system: pAKT(S473) in MDA-MB-361 cells
# protocol_notes: Western blot of Akt phosphorylation (pAKT) in MDA-MB-361 cells
# Type: cell-based, human
# conditions: about 2 hours treatment, read-out: inhibition of pAKT, IC50
pIC50: −log10 of the molar value.
readout_name: pIC50

Consider the compound "Nc1nc2cc(-c3ccc4ncc(C(=O)N5CCOCC5)n4c3)ccc2o1" and give its measured pIC50.
~6.00

----------
# experimental_system: PI3K δ (Homo sapiens, UniProt O00329)
# Sequence (O00329 whole entry, one chain of several): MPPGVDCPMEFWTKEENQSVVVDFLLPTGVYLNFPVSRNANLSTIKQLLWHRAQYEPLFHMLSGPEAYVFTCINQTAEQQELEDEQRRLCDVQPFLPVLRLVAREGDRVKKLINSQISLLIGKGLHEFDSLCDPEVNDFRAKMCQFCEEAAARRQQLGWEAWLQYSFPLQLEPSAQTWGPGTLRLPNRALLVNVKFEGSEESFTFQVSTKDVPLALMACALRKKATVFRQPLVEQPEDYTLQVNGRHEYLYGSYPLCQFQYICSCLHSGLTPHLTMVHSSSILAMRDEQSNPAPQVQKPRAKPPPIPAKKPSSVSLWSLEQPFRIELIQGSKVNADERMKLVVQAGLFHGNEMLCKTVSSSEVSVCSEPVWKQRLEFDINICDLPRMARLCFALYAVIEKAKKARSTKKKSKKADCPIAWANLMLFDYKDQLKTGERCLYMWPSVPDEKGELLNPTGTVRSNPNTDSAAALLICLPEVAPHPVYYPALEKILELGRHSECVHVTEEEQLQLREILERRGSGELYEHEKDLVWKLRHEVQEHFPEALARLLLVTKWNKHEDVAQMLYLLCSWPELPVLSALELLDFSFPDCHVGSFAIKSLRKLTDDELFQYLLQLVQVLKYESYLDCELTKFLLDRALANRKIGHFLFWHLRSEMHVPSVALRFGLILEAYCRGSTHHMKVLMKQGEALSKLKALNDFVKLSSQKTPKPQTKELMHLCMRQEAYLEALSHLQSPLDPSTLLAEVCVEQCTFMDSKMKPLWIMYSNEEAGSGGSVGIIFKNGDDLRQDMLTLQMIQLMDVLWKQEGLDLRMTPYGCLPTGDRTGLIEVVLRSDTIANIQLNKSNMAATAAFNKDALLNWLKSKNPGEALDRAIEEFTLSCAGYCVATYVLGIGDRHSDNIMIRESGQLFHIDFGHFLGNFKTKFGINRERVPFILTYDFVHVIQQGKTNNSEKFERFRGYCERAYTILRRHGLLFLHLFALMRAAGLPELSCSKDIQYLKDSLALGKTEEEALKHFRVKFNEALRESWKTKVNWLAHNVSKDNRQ
# protocol_notes: PI 3-Kinase (human) HTRF assay, PI3K δ
# conditions: read-out: PI3K δ IC50
pIC50: −log10 of the molar value.
readout_name: pIC50

Nc1nc2cc(-c3ccc4ncc(N5CC(N6C7CCC6COC7)C5)nc4n3)ccc2o1 : < 5.00

Moving on to another compound below.
Consider the compound "Nc1nc2cc(-c3ccc4ncc(C(=O)N5CCN(CC6CC6)CC5)n4c3)ccc2o1" and give its measured pIC50.
> 5.00

----------
# experimental_system: mTOR (Homo sapiens, UniProt P42345)
# Construct: purchased Invitrogen
# Sequence (P42345 1360-2549 limits assumed): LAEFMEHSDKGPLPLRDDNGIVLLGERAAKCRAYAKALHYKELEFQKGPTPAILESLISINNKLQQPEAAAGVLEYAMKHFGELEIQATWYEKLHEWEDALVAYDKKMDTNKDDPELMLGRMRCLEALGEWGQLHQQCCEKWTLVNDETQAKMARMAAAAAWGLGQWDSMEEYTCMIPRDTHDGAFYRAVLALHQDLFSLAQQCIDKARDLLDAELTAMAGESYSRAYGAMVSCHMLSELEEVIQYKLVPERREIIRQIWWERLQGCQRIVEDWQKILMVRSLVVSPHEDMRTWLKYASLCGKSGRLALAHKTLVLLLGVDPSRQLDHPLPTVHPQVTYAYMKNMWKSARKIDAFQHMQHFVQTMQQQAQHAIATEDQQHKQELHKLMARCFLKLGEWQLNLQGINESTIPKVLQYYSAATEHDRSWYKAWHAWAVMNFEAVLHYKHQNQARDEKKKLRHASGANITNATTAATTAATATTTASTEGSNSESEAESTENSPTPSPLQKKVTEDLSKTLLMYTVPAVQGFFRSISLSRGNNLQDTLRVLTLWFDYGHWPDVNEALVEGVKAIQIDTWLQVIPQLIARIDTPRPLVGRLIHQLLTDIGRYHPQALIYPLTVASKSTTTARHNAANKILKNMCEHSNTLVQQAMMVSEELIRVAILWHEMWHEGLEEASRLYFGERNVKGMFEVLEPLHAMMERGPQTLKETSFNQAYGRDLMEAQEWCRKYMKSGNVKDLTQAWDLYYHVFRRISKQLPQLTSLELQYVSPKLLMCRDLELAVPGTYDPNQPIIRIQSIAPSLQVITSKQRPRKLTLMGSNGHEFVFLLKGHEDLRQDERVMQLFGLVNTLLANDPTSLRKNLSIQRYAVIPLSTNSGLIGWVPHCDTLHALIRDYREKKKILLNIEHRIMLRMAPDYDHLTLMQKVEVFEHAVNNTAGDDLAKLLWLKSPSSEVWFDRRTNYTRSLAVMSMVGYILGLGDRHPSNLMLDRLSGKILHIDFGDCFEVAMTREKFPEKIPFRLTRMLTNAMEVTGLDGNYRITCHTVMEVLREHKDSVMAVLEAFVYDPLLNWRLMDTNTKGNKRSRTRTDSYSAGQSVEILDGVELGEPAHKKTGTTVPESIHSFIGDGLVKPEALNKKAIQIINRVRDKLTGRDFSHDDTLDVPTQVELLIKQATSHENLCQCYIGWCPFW
# protocol_notes: mTOR kinase inhibition assay (radiometric or LanthaScreen TR-FRET)
# Format: biochemical
# conditions: Table 2; read-out: mTORC IC50
pIC50: −log10 of the molar value.
Parameter pIC50: see the listing below.

Examples from the recorded data:
CN1CCN(C2CC(n3nc(-c4cc5cc(O)ccc5[nH]4)c4c(N)ncnc43)C2)CC1 (stereo not shown) : > 6.30
CN1CCN(C2CCC(n3nc(-c4cc5cc(O)ccc5[nH]4)c4c(N)ncnc43)CC2)CC1 (stereo not shown) : < 6.30
Nc1ncnc2c1c(-c1cc3cc(O)ccc3[nH]1)nn2CC(=O)N1CCOCC1 : < 6.30

Moving on to another compound below.
Recorded pIC50 for "Nc1ncnc2c1c(-c1cc3cc(O)ccc3[nH]1)nn2C1CC(=O)C1" with mTOR (Homo sapiens, UniProt P42345), please?
> 7.00

----------
# experimental_system: PI3K β (Homo sapiens)
# Sequence (P42338 whole entry): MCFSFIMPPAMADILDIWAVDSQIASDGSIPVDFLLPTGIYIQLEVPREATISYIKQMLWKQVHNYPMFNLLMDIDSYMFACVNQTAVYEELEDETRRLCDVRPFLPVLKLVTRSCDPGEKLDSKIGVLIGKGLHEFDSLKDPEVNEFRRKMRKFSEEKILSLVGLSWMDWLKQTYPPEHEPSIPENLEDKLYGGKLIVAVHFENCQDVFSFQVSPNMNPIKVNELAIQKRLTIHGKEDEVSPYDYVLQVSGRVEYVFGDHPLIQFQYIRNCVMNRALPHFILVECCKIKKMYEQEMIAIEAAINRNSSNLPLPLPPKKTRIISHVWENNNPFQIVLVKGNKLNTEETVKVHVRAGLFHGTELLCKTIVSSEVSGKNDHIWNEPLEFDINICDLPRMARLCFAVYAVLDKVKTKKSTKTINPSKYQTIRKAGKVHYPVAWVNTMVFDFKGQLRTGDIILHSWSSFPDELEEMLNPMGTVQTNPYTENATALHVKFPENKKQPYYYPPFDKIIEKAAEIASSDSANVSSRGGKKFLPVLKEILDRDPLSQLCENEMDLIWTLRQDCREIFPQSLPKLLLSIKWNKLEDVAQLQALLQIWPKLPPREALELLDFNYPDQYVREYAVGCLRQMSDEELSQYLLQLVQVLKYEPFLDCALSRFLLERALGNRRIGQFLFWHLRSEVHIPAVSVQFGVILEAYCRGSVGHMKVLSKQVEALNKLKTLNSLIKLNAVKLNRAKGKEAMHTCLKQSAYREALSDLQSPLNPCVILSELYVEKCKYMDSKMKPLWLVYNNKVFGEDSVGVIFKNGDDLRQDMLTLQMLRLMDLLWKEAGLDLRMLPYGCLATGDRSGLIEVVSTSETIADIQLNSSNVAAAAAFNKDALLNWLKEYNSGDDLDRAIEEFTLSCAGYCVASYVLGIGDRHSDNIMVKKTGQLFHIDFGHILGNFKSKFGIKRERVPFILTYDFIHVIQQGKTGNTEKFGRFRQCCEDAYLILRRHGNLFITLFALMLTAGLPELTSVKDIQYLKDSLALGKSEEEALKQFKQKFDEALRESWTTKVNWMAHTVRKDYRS
# Sequence (P27986 whole entry partner): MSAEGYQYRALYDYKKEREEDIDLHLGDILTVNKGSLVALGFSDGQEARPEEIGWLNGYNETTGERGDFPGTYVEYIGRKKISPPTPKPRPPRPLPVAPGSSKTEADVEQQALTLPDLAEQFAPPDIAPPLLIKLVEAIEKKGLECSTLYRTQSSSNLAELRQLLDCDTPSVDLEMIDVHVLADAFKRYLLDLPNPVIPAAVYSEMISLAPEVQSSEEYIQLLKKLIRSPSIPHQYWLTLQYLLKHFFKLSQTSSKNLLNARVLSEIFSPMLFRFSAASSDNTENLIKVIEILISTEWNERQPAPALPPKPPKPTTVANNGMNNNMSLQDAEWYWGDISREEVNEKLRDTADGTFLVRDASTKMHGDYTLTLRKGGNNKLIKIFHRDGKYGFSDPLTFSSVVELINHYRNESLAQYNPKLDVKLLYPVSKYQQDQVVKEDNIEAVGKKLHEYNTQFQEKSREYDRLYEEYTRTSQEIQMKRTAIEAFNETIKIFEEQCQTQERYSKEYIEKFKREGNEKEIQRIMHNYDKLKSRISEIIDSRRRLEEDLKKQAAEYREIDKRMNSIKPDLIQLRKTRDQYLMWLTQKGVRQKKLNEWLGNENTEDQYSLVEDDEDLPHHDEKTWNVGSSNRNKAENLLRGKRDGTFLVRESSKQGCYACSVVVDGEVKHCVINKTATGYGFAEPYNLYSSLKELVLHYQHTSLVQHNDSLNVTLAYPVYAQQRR
# protocol_notes: PI 3-Kinase (human) HTRF assay, PI3K β
Parameter IC50: see the listing below.

Examples from the recorded data:
C[C@H]1CN(c2cnc3scc(-c4ccc5oc(N)nc5c4)c3n2)CCN1 : > 10 µM
CCN1CCN(C(=O)c2cnc3ncc(-c4ccc5oc(N)nc5c4)cn23)CC1 : > 10 µM
Nc1nc2cc(-c3ccc4ncc(N5CCNC(=O)C5)nc4n3)ccc2o1 : < 1 µM
C=Cc1oc(NC(C)=O)nc1/C=C/c1nn(C)c2ncnc(N)c12 : > 10 µM

Recorded IC50 for "Nc1nsc2cc(-c3ccc4nccc(-c5ccncc5)c4c3)ccc12" with PI3K β (Homo sapiens), please?
< 1 µM

----------
# experimental_system: UniProtKB P42336
# Sequence (P42336 whole entry, one chain of several): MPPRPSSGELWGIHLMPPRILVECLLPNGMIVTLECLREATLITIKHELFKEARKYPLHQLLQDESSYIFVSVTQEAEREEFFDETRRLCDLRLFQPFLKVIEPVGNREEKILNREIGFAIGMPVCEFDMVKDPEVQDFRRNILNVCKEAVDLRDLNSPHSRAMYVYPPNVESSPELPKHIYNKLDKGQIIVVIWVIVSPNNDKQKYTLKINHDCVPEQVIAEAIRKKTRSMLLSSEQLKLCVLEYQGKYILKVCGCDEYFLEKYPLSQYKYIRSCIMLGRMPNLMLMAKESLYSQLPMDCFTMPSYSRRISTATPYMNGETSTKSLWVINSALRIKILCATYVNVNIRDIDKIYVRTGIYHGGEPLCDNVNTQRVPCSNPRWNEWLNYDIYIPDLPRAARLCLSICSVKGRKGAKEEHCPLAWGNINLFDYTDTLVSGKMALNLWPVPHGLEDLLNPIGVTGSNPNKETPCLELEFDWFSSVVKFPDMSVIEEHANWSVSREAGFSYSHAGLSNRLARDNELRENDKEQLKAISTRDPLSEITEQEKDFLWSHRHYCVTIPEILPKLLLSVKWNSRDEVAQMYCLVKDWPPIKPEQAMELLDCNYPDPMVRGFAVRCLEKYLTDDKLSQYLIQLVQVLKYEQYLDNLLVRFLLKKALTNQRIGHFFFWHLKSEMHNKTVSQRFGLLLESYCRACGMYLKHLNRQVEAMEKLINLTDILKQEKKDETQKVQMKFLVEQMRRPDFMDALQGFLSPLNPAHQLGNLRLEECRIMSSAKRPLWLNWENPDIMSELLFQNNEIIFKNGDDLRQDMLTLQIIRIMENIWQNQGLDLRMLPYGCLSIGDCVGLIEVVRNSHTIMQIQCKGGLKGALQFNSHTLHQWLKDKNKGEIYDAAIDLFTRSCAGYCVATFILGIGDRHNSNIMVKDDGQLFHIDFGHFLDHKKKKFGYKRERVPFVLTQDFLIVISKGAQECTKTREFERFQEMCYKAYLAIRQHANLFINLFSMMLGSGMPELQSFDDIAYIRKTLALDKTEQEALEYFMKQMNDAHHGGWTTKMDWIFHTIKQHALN
# protocol_notes: PI 3-Kinase (human) HTRF assay, PI3K α
# conditions: read-out: PI3K α IC50
readout_name: IC50

Nc1nc2cc(-c3ccc4ncc(C(=O)N5CCOCC5)n4c3)ccc2o1 : < 100 nM
CN1CCN(CCNC(=O)c2cnc3ccc(-c4ccc5oc(N)nc5c4)cn23)CC1 : < 100 nM
Nc1ncnc2c1c(-c1cc3cc(O)ccc3[nH]1)nn2C1CCOCC1 : > 500 nM
Nc1ncnc2c1c(-c1cc3cc(O)ccc3[nH]1)nn2C1CCN(C(=O)C2CC2)CC1 : > 500 nM
CNC(=O)Cn1nc(-c2cc3cc(O)ccc3[nH]2)c2c(N)ncnc21 : > 500 nM
CC(C)N1CCC(n2nc(-c3cc4cc(O)cc(Cl)c4[nH]3)c3c(N)ncnc32)CC1 : > 500 nM

Consider the compound "COc1cccc2cc(-c3nn(C4CCOCC4)c4ncnc(N)c34)[nH]c12" and give its measured IC50.
100 to 500 nM

Consider the compound "CC(=O)Nc1nc2ccc(-c3nc(N4CCOCC4)c4sc(CN5CCN(S(C)(=O)=O)CC5)cc4n3)cc2s1" and give its measured IC50.
> 10000 nM
